Tested on: Aliivibrio fischeri
Test: Microtox acute toxicity assay
Assay type: cell-based
Settings: read-out: Microtox EC50 30 min; 30 min exposure, n=3, mean ± SD
pEC50: −log10 of the molar value.

# compound, pEC50
records = [
    ("CCCCCCCC(CC(=O)O)OC(=O)CC(CCCCCCC)O[C@@H]1O[C@@H](C)[C@H](O)[C@@H](O)[C@H]1O (stereo partly drawn) [Rha-C10-C10 (S,R)]", 4.44),
    ("CCCCCCCC(CC(=O)O)OC(=O)CC(CCCCCCC)O[C@@H]1O[C@@H](C)[C@H](O)[C@@H](O)[C@H]1O (stereo partly drawn) [Rha-C10-C10 (R,R)]", 4.33),
    ("CCCCCCCC(CC(=O)O)OC(=O)CC(CCCCCCC)O[C@@H]1O[C@@H](C)[C@H](O)[C@@H](O)[C@H]1O (stereo partly drawn) [Rha-C10-C10 (S,S)]", 4.41),
]
